- test.system: T1, human IL-11 (human, UniProt P20809 22-199)
- T1 sequence: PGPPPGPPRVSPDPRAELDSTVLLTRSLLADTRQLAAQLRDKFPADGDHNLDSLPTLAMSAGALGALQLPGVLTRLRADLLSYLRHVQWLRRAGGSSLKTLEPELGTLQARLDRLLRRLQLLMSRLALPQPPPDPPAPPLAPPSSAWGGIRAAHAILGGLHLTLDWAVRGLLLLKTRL
- test.description: cell-based or functional assay
measured.quantity: RGA IC50 (nM)
Return type: number; implicit unit nM.

query: Give RGA IC50 for TPP-26304 (antibody, V domains shown) VH: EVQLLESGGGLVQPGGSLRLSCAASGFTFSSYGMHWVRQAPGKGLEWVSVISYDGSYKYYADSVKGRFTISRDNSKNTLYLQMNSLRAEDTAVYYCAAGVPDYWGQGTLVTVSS VL: QSVLTQPPSASGTPGQRVTISCTGSSSNIWAGYDVHWYQQLPGTAPKLLIYSNNERPSGVPDRFSGSKSGTSASLAISGLRSEDEADYYCAAWDDSLNGPVFGGGTKLTVL
result: 5.9

query: Give RGA IC50 for TPP-26323 (antibody, V domains shown) VH: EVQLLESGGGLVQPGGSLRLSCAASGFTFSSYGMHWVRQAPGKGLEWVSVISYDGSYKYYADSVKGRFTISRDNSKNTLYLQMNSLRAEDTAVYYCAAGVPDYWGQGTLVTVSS VL: QSVLTQPPSASGTPGQRVTISCTGSSSNIGAGYDVHWYQQLPGTAPKLLIYSNNERPSGVPDRFSGSKSGTSASLAISGLRSEDEADYYCAAWDGSLNGPVFGGGTKLTVL
result: 2
